System: Echinochloa crus-galli (ECHCG)
Method Summary: Pre-emergence herbicidal activity, glasshouse pot test
Format: in vivo
Measurement Setup: Echinochloa crus-galli, 312 h; Rate 250 g/ha; pre-emergence spray; evaluated after 13 days; read-out: Pre-emergence activity ECHCG (100=total damage to plant; 0=no damage to plant)
Value Kind: pest or weed control at 250 g/ha (%)
Lab book: enter the figure in %, no units written.

Below: 4 compounds and their reported pest or weed control at 250 g/ha.
>>> readout_value("CCc1ccc(Oc2nc3ccc(Cl)cc3[n+]([O-])n2)cc1C1=C(O)C(C)(C)OC(C)(C)C1=O [Example A-236]")
80
>>> readout_value("CCc1ccc(Oc2nc3ccc(OC)cc3s2)cc1C1=C(O)C(C)(C)OC(C)(C)C1=O [Example A-214]")
90
>>> readout_value("CCc1ccc(Oc2ccc(Br)c(Cl)c2)cc1C1=C(O)[C@H]2CC[C@H](C2)C1=O [Example A-247]")
100
>>> readout_value("CCc1ccc(Oc2nc3ccc(Cl)cc3s2)cc1C1=C(O)[C@@H]2CC[C@](C)(C1=O)C2(C)C [Example A-320]")
100

Alright, here's another compound for you.
Ask: Form: Entry = CCc1ccc(Oc2ccc(C(F)(F)F)cc2[N+](=O)[O-])cc1C1=C(O)[C@@H]2CC[C@](C)(C1=O)C2(C)C [Example A-327] | System = Echinochloa crus-galli (ECHCG) | pest or weed control at 250 g/ha = ____
Result: 100
